# assay target: UniProt A0A0F6SD02
# Sequence (A0A0F6SD02 1-356): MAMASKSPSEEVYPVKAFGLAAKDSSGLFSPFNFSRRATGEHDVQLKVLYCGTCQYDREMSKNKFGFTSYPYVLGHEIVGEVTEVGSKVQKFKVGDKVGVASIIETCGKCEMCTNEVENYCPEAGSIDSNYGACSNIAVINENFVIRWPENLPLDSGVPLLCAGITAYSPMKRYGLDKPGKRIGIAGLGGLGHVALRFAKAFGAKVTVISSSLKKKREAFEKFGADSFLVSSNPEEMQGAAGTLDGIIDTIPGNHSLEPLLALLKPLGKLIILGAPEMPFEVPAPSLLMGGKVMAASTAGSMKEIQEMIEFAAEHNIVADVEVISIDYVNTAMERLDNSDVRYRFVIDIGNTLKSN
pKd: −log10 of the molar value.

{"chemical smiles": "NC(=O)C1=CN([C@@H]2O[C@H](COP(=O)(O)OP(=O)(O)OC[C@H]3O[C@@H](n4cnc5c(N)ncnc54)[C@H](OP(=O)(O)O)[C@@H]3O)[C@@H](O)[C@H]2O)C=CC1", "pKd": 5.82}
